The entries that follow carry pIC50 values tested on Non-receptor tyrosine-protein kinase TYK2 (Homo sapiens, UniProt P29597), drawn from several published reports.
pIC50: −log10 of the molar value.
Kind request: treat 9 as inclusive, so pIC50 at 9 or higher is 1 (yes), anything lower is 0 (no).

Recorded results for 2 compounds are shown here.
>>> assigned_label("[2H]C([2H])([2H])NC(=O)c1cnc(NC(=O)C2CC2)cc1Nc1ncc2cnn(CC)c2c1OC")
"0 (no)"
>>> assigned_label("CNC(=O)c1cnc2nc1Nc1cc(cc(-c3ncn(C)n3)c1OC)CN(C)Cc1cccc(c1)N2")
"0 (no)"

Check this compound for pIC50 at or above 9: `[2H]C([2H])([2H])NC(=O)c1cnc(Nc2cccc(C#N)c2)nc1Nc1cccc(-c2ncn(C)n2)c1OC`
0 (no)

Check this compound for pIC50 at or above 9: `[2H]C([2H])([2H])NC(=O)c1cnc(Nc2ccc(F)cc2)nc1Nc1cccc(-c2ncn(C)n2)c1OC`
0 (no)

Check this compound for pIC50 at or above 9: `[2H]C([2H])([2H])c1cc(O)c(F)cc1-c1ccc2c(-c3nc4c([nH]3)CN(C(=O)N3CCC(O)CC3)C4)n[nH]c2c1`
1 (yes)

Check this compound for pIC50 at or above 9: `[2H]C([2H])([2H])c1cc(O)c(F)cc1-c1ccc2c(-c3nc4c([nH]3)CN(C(=O)NC)C4)n[nH]c2c1`
1 (yes)

Check this compound for pIC50 at or above 9: `Cc1cnc(Nc2ccc(OCCO)cc2)nc1Nc1cccc(S(=O)(=O)NC(C)(C)C)c1`
0 (no)

Check this compound for pIC50 at or above 9: `CNC(=O)c1cnc(NC(=O)C2CC2)cc1Nc1cn(C)c2c(F)cn(C)c(=O)c12`
0 (no)

Check this compound for pIC50 at or above 9: `[2H]C([2H])([2H])c1cc(O)c(F)cc1-c1ccc2c(-c3nc4c([nH]3)CN(C(=O)N3CCOCC3)C4)n[nH]c2c1`
1 (yes)
